Measured values drawn from ChEMBL document CHEMBL1857833 for this set.

A collection of compounds and their measured IC50 at 72 h
assay: DNDI: Cytotoxicity against L929 mouse fibroblasts, 72 hour.; format: toxicity, cell-based; details: mouse, L929 mouse fibroblasts

Worked examples, 5 compounds total:
compound | test_value
Cc1ccc(/C(=N/O)NC2CCCCC2)c(Oc2c(F)cccc2F)n1 | > 10 µg/mL
CCC(C)C1C(=O)CC(=O)N1C(=O)OC(C)(C)C (stereo not drawn) | > 10 µg/mL
COc1ccc(-c2cc3[nH]c(-c4ccccc4)cc(=O)n3n2)cc1 | > 10 µg/mL
O=C(OC1=CC(=O)N(C(=O)OCc2ccccc2)C1COCc1ccccc1)c1ccccc1 (stereo not drawn) | > 10 µg/mL
CCCCCC(C)NCc1coc(-c2ccc(OCCC)cc2)n1 (stereo not drawn) | < 3.13 µg/mL

// IC50 at 72 h lookup, key: FC(F)(F)c1ccc(CNC(c2nc(Cc3ccccc3)c(N3CCOCC3)o2)C2CC2)cc1 (stereo not drawn)
> 10 µg/mL

// IC50 at 72 h lookup, key: CCC(C)C(NCc1ccc(C)cc1)c1nc(Cc2ccccc2)c(N2CCOCC2)o1 (stereo not drawn)
> 10 µg/mL
